We begin with a simple list: items and their reported Obs. Lupamin Ratio.
Test: GC-MS head space ratio of perfume raw materials with versus without polyamine polymer (R)
Type: physicochemical
Conditions: head space with polyamine polymer / head space nil polyamine polymer
Form: value (number only, do not type unit).

Worked examples, 6 compounds total:
Field Obs. Lupamin Ratio (entry CC(=O)/C(C)=C(/C)C(C)C(C)(C)C (stereo not drawn) [Koavone] ) reads 1.17

Field Obs. Lupamin Ratio (entry CC(C)=CCCC(C)CCCC(C)C=O (stereo not drawn) [Adoxal] ) reads 0.79

Field Obs. Lupamin Ratio (entry CCCCCCCCC=O [Nonaldehyde] ) reads 0.21

Field Obs. Lupamin Ratio (entry CC(C)CCCC(C)CC=O (stereo not drawn) [Tetrahydrogeranial] ) reads 0.42

Field Obs. Lupamin Ratio (entry O=CC1CCC2C3CCC(C3)C12 (stereo not drawn) [Melozone] ) reads 0.28

Field Obs. Lupamin Ratio (entry CC1(C)CCc2ccc(CCC=O)cc21 [Hivernal] ) reads 0.17

Continuing:
Field Obs. Lupamin Ratio (entry CC(C)=CCC/C(C)=C/C=O [Citral] ) reads 0.23

Field Obs. Lupamin Ratio (entry O=Cc1ccc2c(c1)OCO2 [Heliotropin] ) reads 1.65

Field Obs. Lupamin Ratio (entry COc1ccc(C=O)cc1 [p-Anisaldehyde] ) reads 1.52
